Property: difference in log2 fold change of viability; scope: individual compounds
Tested on: FLX1 + dox-induced PRKAR1A G325D
Assay: difference in log2 fold change of viability vs plate median (dox-induced PRKAR1A G325D minus uninduced); higher = compound less effective when PKA is inhibited
Conditions: concentration: not stated (2 or 5 uM); 5 days
Parameter: difference in log2 fold change of viability

>>> measurement("O=C1Nc2ccccc2/C1=C1/Nc2ccccc2C1=O")
0.211
>>> measurement("O=C1NC(=O)C(=Cc2ccc(-c3ccc(F)cc3)o2)S1 (stereo in doubt)")
-0.0657
>>> measurement("Oc1cccc(-c2nc(N3CCOCC3)c3oc4ncccc4c3n2)c1")
0.496
>>> measurement("O=c1cc(N2CCOCC2)oc2c(-c3ccccc3)cccc12")
0.224
>>> measurement("Cn1cnc2c(F)c(Nc3ccc(Br)cc3F)c(C(=O)NOCCO)cc21")
-1.09
>>> measurement("CCc1cc(Nc2nccc(-c3c(-c4ccc(OC)c(C(=O)Nc5c(F)cccc5F)c4)nc4ccccn34)n2)c(OC)cc1N1CCC(N2CCN(S(C)(=O)=O)CC2)CC1")
0.164
>>> measurement("COc1c(C)c(C(=O)c2ccc(N)c(C(=O)O)c2)n2ccccc12")
0.093
>>> measurement("CCS(=O)(=O)Nc1ccc2c(c1)/C(=C(/Nc1ccc(CN3CCCCC3)cc1)c1ccccc1)C(=O)N2")
-0.105
>>> measurement("COc1ccc(S(=O)(=O)N(CCO)c2ccccc2CN(C)C/C=C/c2ccc(Cl)cc2)cc1 [KN-93 Phosphate]")
0.66
